meta.source: patent US20170087125A1

Assay: Pharmacokinetics in rat plasma after oral and intravenous administration
Assay type: in vivo, Sprague Dawley rats
Settings: male, Sprague-Dawley, rat, plasma, oral, 100 mg/kg
PARAMETER: Cmax

COMPOUND	VAL
O=c1c(O)c(-c2ccc(O)c(O)c2)oc2cc(O)cc(O)c12 [Ingredient 2, 3,3′,4′5,7-Penthydroxyflavone]	51.9 ng/mL

Check the records and state Cmax for O=c1cc(-c2ccc(O)c(O)c2)oc2cc(O)cc(O)c12 [Ingredient 1, 3′,4′,5,7-tetrahydroxyflavone] 127 ng/mL

Check the records and state Cmax for "O=c1c(O)c(-c2ccc(O)cc2)oc2cc(O)cc(O)c12" 165 ng/mL

----------
Below, each entry is listed alongside its reported AUC.
Assay: Pharmacokinetics in rat plasma after oral and intravenous administration
Assay type: in vivo, Sprague Dawley rats
Settings: male, Sprague-Dawley, rat, plasma, po, 100 mg/kg; read-out: AUC0.24 (Oral)
Method: Blood samples were collected at 9 time points, i.e., 0 min, 15 min, 30 min, 60 min, 2 h, 4 h, 8 h, 12 h and 24 h. Plasma levels of Luteolin, Quercetin and Kaempferol were analyzed using HPLC. […]

Illustrative cases are given below, each with its answer.
COMPOUND	AUC
O=c1cc(-c2ccc(O)c(O)c2)oc2cc(O)cc(O)c12 [Ingredient 1, 3′,4′,5,7-tetrahydroxyflavone]	1170 ng·h/mL
O=c1c(O)c(-c2ccc(O)c(O)c2)oc2cc(O)cc(O)c12 [Ingredient 2, 3,3′,4′5,7-Penthydroxyflavone]	248 ng·h/mL

Kindly consider the entry below.
Check the records and state AUC for "O=c1c(O)c(-c2ccc(O)cc2)oc2cc(O)cc(O)c12" 2710 ng·h/mL

----------
Assay: Pharmacokinetics in rat plasma after oral and intravenous administration
Type: in vivo, Sprague Dawley rats
Conditions: male, Sprague-Dawley, rat, plasma, 100 mg/kg; read-out: t1/2 half-life (converted)
PARAMETER: half-life
The reply should read as a number followed by its unit.

Illustrative cases are given below, each with its answer.
COMPOUND	PARAMETER	VAL
O=c1c(O)c(-c2ccc(O)cc2)oc2cc(O)cc(O)c12	half-life	2.45 h
O=c1cc(-c2ccc(O)c(O)c2)oc2cc(O)cc(O)c12 [Ingredient 1, 3′,4′,5,7-tetrahydroxyflavone]	half-life	2.26 h

Kindly consider the entry below.
Check the records and state half-life for O=c1c(O)c(-c2ccc(O)c(O)c2)oc2cc(O)cc(O)c12 [Ingredient 2, 3,3′,4′5,7-Penthydroxyflavone] 1.71 h

----------
Assay: Pharmacokinetics in rat plasma after oral and intravenous administration
Type: in vivo, Sprague Dawley rats
Details: male, Sprague-Dawley, rat, plasma, iv, 100 mg/kg; read-out: AUC0.24 (IV)
PARAMETER: AUC (ng·h/mL)
Number in ng·h/mL, nothing else.

Illustrative cases are given below, each with its answer.
MOLECULE	AUC [ng·h/mL]
O=c1c(O)c(-c2ccc(O)c(O)c2)oc2cc(O)cc(O)c12 [Ingredient 2, 3,3′,4′5,7-Penthydroxyflavone]	27200
O=c1c(O)c(-c2ccc(O)cc2)oc2cc(O)cc(O)c12	93800

Kindly consider the entry below.
Check the records and state AUC for O=c1cc(-c2ccc(O)c(O)c2)oc2cc(O)cc(O)c12 [Ingredient 1, 3′,4′,5,7-tetrahydroxyflavone] 90100
